Molecular target: NTCP (Homo sapiens, UniProt Q14973)
Sequence (Q14973 whole entry): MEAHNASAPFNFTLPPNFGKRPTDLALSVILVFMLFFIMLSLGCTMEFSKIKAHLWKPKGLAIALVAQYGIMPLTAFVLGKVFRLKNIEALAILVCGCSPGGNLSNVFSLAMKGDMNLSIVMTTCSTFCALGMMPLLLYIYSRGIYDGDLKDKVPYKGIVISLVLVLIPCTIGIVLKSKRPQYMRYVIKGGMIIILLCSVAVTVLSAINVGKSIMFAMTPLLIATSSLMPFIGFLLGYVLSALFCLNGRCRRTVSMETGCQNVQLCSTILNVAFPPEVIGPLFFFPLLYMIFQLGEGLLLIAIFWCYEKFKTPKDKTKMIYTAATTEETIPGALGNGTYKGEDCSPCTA
Experiment: HepG2-NTCP preS1 binding competition assay (FITC-labeled myristoylated preS1 peptide)
Conditions: HepG2-NTCP cells; competition with FITC-labeled preS1 peptide
pEC50: −log10 of the molar value.
Could you please report measured pEC50 for the items listed next?

Here's what some known entries look like.
# MOLECULAR_STRING, pEC50
data = [
    ("CN1[C@H](C2CCCCC2)CN(c2ccccc2)c2cc(Cl)c(N3C[C@H](C(=O)O)[C@@H](C(F)(F)F)C3)cc2S1(=O)=O", "> 7.00"),
    ("CN1[C@H](C2CCCCC2)CN(c2ccccc2)c2cc(OC3COC3)c(-c3ccc(F)c(C(=O)O)c3)cc2S1(=O)=O", "6.00 to 7.00"),
]

Request: // output pEC50; input CN1[C@H](C2CCCCC2)CN(c2ccccc2)c2cc(Cl)c(-c3cc(NC(=O)OCCOC(C)(C)C)c(C(=O)O)s3)cc2S1(=O)=O ; system NTCP (Homo sapiens, UniProt Q14973)
Response: > 7.00
